For each entry below, report its kon value.
targetSystem: T1, recombinant fibronectin domain ED-B (His)6 (human, UniProt P02751 1266-1356)
T1 construct: domain: ED-B; Produced by standard procedures; immobilised on ELISA plates or on the BIAcore chip; also called recombinant ED-B; human ED-B
procedureSummary: SPR (BIAcore), ED-B immobilised on chip, Fab in flow
Expressed in M⁻¹ s⁻¹, but write only the number.

Query block: If you can, please state the reported kon value of MOR03069 (Fab, V domains shown, Fab, L-CDR3 derivative of MOR02619) VH: QVQLQESGPGLVKPGETLSLTCTVSGGSISSYYWSWIRQAPGKGLEWIGIGHWGSTQYNPSLKGRVTISVDTSKNQFSLKLSSVTAEDTAVYYCARFFDVWGQGTLVTVSS VL: DIVLTQPPSVSGAPGQRVTISCSGSSSNIGSNTVRWYQQLPGTAPKLLIYSNNKRPSGVPDRFSGSKSGTSASLAITGLQSEDEADYYCWTGMSYHFVFGGGTKLTVLG .
Result block: 1.2e+06

Query block: Then MOR03064 (Fab, V domains shown, Fab, L-CDR3 derivative of MOR02715) VH: QVQLVESGGGLVQPGGSLRLSCAASGFTFSSYGMHWVRQAPGKGLEWVSVISSSGSYIYYADSVKGRFTISRDNSKNTLYLQMNSLRAEDTAVYYCARNKVGFDVWGQGTLVTVSS VL: DIALTQPASVSGSPGQSITISCTGTSSDGGGYNTVSWYQQHPGKAPKLMIYYVHKRPSGVSNRFSGSKSGNTASLTISGLQAEDEADYYCQSWDLLAPSVVFGGGTKLTVLG ?
Result block: 1.5e+06

Query block: Okay, and MOR03066 (Fab, V domains shown, Fab, L-CDR3 derivative of MOR02619) VH: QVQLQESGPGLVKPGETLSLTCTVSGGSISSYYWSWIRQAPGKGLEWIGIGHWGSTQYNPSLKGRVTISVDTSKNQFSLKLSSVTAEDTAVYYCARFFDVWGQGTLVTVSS VL: DIVLTQPPSVSGAPGQRVTISCSGSSSNIGSNTVRWYQQLPGTAPKLLIYSNNKRPSGVPDRFSGSKSGTSASLAITGLQSEDEADYYCSSYDTQVTRVFGGGTKLTVLG ?
Result block: 1.1e+06

Query block: Now the same for MOR03062 (Fab, V domains shown, Fab, L-CDR3 derivative of MOR02715) VH: QVQLVESGGGLVQPGGSLRLSCAASGFTFSSYGMHWVRQAPGKGLEWVSVISSSGSYIYYADSVKGRFTISRDNSKNTLYLQMNSLRAEDTAVYYCARNKVGFDVWGQGTLVTVSS VL: DIALTQPASVSGSPGQSITISCTGTSSDGGGYNTVSWYQQHPGKAPKLMIYYVHKRPSGVSNRFSGSKSGNTASLTISGLQAEDEADYYCQSWDLSVHQVVFGGGTKLTVLG
Result block: 3.5e+06

Query block: Continue with MOR03071 (Fab, V domains shown, Fab, L-CDR3 derivative of MOR02619) VH: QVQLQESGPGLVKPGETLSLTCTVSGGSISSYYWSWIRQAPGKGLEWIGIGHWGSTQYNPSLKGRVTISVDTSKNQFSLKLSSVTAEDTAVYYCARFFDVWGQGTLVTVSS VL: DIVLTQPPSVSGAPGQRVTISCSGSSSNIGSNTVRWYQQLPGTAPKLLIYSNNKRPSGVPDRFSGSKSGTSASLAITGLQSEDEADYYCLAYIQSKGHVFGGGTKLTVLG
Result block: 1.9e+06

Query block: Next binder up: MOR03055 (Fab, V domains shown, Fab, L-CDR3 derivative of MOR02619) VH: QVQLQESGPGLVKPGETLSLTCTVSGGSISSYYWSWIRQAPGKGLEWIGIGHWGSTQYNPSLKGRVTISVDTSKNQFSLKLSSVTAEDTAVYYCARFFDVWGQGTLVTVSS VL: DIVLTQPPSVSGAPGQRVTISCSGSSSNIGSNTVRWYQQLPGTAPKLLIYSNNKRPSGVPDRFSGSKSGTSASLAITGLQSEDEADYYCQAWTRAHRYPVFGGGTKLTVLG
Result block: 1.8e+06

Query block: Can you check MOR03075 (Fab, V domains shown, Fab, L-CDR3 derivative of MOR02619) VH: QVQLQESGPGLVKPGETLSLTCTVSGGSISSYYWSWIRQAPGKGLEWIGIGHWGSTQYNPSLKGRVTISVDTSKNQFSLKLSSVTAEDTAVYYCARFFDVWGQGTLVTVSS VL: DIVLTQPPSVSGAPGQRVTISCSGSSSNIGSNTVRWYQQLPGTAPKLLIYSNNKRPSGVPDRFSGSKSGTSASLAITGLQSEDEADYYCQSWDPRSFTVFGGGTKLTVLG next?
Result block: 1.1e+06

Query block: Now give it for MOR02715 (Fab, V domains shown, HuCAL GOLD Fab, VH3/L2) VH: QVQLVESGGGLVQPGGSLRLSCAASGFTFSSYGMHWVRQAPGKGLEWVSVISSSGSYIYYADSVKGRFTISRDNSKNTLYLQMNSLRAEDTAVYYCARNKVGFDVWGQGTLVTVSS VL: DIALTQPASVSGSPGQSITISCTGTSSDGGGYNTVSWYQQHPGKAPKLMIYYVHKRPSGVSNRFSGSKSGNTASLTISGLQAEDEADYYCQAWDNQGMKYVFGGGTKLTVLG too.
Result block: 990000

Query block: Likewise for MOR02619 (Fab, V domains shown, HuCAL GOLD Fab, VH4/L1) VH: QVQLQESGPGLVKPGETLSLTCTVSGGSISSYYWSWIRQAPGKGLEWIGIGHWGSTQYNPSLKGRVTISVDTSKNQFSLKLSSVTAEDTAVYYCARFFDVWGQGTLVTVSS VL: DIVLTQPPSVSGAPGQRVTISCSGSSSNIGSNTVRWYQQLPGTAPKLLIYSNNKRPSGVPDRFSGSKSGTSASLAITGLQSEDEADYYCQSWDGASTGVFGGGTKLTVLG ?
Result block: 780000
